- ASSAY_TARGET: Ephrin type-B receptor 4 (Homo sapiens, UniProt P54760)
- Sequence (P54760 whole entry): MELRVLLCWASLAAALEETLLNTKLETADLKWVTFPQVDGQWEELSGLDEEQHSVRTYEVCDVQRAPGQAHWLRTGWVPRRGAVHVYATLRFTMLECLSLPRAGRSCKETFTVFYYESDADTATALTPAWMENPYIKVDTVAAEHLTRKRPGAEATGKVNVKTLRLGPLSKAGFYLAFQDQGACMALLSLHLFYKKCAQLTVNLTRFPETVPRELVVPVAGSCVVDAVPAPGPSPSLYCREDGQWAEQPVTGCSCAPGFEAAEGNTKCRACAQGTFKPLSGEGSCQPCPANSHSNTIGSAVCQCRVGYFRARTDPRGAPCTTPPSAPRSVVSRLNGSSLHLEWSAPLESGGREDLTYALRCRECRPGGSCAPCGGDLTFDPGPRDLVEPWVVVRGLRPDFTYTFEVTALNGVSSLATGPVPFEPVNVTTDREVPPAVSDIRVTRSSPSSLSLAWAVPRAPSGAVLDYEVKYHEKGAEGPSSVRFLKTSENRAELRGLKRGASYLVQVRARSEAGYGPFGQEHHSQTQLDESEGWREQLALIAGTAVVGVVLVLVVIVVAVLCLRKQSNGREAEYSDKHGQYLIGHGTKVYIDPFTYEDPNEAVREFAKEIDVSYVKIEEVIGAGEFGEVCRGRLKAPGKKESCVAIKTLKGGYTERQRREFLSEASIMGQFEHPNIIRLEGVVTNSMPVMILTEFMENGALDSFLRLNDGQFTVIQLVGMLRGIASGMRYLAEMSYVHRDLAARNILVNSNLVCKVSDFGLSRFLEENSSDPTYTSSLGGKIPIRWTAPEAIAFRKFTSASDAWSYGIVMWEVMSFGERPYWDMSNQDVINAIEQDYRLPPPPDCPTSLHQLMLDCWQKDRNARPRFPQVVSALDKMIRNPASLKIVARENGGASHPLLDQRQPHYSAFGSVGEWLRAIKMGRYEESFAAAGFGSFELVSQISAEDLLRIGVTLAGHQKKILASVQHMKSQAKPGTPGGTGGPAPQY
- METHOD_SUMMARY: Inhibition of Myc-His-tagged EphB4 expressed in CHOK1 cells assessed as phosphorylation by ELISA
- Type: cell-based, CHO-K1
MEASUREMENT_LABEL: IC50 (nM)

NS(=O)(=O)c1cccc(Nc2nccc(Nc3c(Cl)ccc4c3OCO4)n2)c1 172

1: NC(=O)c1cc(Nc2nccc(Nc3c(Cl)ccc4c3OCO4)n2)cc(N2CCOCC2)c1
2: CS(=O)(=O)Nc1cc(Nc2nccc(Nc3c(Cl)ccc4c3OCO4)n2)cc(N2CCOCC2)c1
3: CS(=O)(=O)Nc1cc(Nc2nccc(Nc3c(Cl)ccc4c3OCO4)n2)cc(S(N)(=O)=O)c1
4: CS(=O)(=O)Nc1cc(Nc2nccc(Nc3c(Cl)ccc4c3OCO4)n2)cc(NS(C)(=O)=O)c1
Query :: # desc sort on IC50 across 4 compounds List each label, following the requested order.
Result :: 3, 4, 1, 2
(3: 14100 nM, 4: 7170 nM, 1: 887 nM, 2: 170 nM)

---

- ASSAY_TARGET: Ephrin type-B receptor 4 (Homo sapiens)
- Sequence (P54760 whole entry): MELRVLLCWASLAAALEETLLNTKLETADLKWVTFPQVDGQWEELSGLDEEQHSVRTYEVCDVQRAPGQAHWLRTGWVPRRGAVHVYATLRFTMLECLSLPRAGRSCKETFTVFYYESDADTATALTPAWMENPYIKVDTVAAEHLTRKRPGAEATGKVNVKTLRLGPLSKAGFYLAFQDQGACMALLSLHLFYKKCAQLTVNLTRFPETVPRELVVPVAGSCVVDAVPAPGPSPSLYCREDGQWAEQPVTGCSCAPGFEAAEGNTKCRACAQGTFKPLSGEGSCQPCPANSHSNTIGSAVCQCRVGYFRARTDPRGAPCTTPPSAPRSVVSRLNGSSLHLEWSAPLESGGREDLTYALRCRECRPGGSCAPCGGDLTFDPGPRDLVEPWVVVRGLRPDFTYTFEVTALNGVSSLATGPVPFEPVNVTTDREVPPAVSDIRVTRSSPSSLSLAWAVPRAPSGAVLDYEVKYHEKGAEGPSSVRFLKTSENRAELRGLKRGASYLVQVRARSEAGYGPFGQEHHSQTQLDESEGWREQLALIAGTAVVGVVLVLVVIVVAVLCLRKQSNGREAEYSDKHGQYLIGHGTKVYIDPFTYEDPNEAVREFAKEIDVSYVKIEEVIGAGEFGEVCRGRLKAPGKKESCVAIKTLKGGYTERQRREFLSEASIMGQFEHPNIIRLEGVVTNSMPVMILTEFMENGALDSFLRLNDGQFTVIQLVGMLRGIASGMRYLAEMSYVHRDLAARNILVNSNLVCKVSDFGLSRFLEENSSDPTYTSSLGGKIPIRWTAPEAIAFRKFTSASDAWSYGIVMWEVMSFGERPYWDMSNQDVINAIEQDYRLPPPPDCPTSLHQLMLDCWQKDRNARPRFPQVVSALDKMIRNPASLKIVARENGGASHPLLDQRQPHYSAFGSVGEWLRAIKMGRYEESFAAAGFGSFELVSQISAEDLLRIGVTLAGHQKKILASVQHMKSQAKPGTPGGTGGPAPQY
- METHOD_SUMMARY: Inhibition of EphB4
pIC50: −log10 of the molar value.
MEASUREMENT_LABEL: pIC50

Sample records with pIC50:
CS(=O)(=O)c1cc(Nc2nccc(Nc3c(Cl)ccc4c3OCO4)n2)cc(N2CCOCC2)c1 8.70
CS(=O)(=O)Nc1cc(Nc2nccc(Nc3c(Cl)ccc4c3OCO4)n2)cc(S(N)(=O)=O)c1 9.00
NC(=O)c1cc(Nc2nccc(Nc3c(Cl)ccc4c3OCO4)n2)cc(C(N)=O)c1 7.11
NC(=O)c1cc(Nc2nccc(Nc3c(Cl)ccc4c3OCO4)n2)cc(N2CCOCC2)c1 7.89
CS(=O)(=O)Nc1cc(Nc2nccc(Nc3c(Cl)ccc4c3OCO4)n2)cc(N2CCOCC2)c1 8.70

A: CS(=O)(=O)Nc1cc(Nc2nccc(Nc3c(Cl)ccc4c3OCO4)n2)cc(C(N)=O)c1
B: CS(=O)(=O)c1cc(Nc2nccc(Nc3c(Cl)ccc4c3OCO4)n2)cc(C(N)=O)c1
Query :: Field: entry with larger pIC50 (options A / B ). Let me know the label of the one you choose.
Result :: B
(B: 7.64, A: 6.43)

P: CS(=O)(=O)Nc1cc(Nc2nccc(Nc3c(Cl)ccc4c3OCO4)n2)cc(S(C)(=O)=O)c1
Q: CS(=O)(=O)c1cc(Nc2nccc(Nc3c(Cl)ccc4c3OCO4)n2)cc(S(C)(=O)=O)c1
Query :: Which item exceeds the other in pIC50, P or Q ? Record your answer as the label of the chosen record.
Result :: P

---

- ASSAY_TARGET: Ephrin type-B receptor 4 (Homo sapiens)
- METHOD_SUMMARY: Inhibition of Myc-His-tagged EphB4 expressed in CHOK1 cells assessed as phosphorylation by ELISA
- Format: cell-based, CHO-K1
MEASUREMENT_LABEL: IC50 (nM)

CS(=O)(=O)c1cc(Nc2nccc(Nc3c(Cl)ccc4c3OCO4)n2)cc(N2CCOCC2)c1 32
CS(=O)(=O)c1cc(Nc2nccc(Nc3c(Cl)ccc4c3OCO4)n2)cc(C(N)=O)c1 22200
NC(=O)c1cccc(Nc2nccc(Nc3c(Cl)ccc4c3OCO4)n2)c1 900

1: CS(=O)(=O)Nc1cc(Nc2nccc(Nc3c(Cl)ccc4c3OCO4)n2)cc(S(C)(=O)=O)c1
2: CS(=O)(=O)c1cc(Nc2nccc(Nc3c(Cl)ccc4c3OCO4)n2)cc(S(C)(=O)=O)c1
Query :: Select one: 1 or 2 . Criterion: greater recorded IC50. Lab log: write the label of the selected item as the result.
Result :: 1
